In this section, each of the binders is paired with its reported pKd.
target-or-test-system: T1, Plasmodium falciparum histidine-rich protein II (HRP-II) (Plasmodium falciparum, UniProt P05227 22-332)
T1 construct: Coating antigen of all ELISAs; also called HRP-II protein; MA-HRPII Ag protein
T1 sequence (looked up): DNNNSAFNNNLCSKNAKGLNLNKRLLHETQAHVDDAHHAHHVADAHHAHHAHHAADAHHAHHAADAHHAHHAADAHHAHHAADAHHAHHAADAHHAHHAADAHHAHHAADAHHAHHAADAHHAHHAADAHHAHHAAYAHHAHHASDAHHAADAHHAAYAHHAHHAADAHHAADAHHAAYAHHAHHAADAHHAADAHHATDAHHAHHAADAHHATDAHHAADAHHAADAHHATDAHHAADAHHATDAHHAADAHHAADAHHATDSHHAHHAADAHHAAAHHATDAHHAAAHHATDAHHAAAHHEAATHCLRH
protocol-summary: indirect ELISA, four antigen coating concentrations;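 also: optical density read across an antibody dilution series at each antigen coating level, curves plotted on log scale, KD derived as reciprocal of the averaged constant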
pKd: −log10 of the molar value.
assay-readout: pKd

>>> reported_value("Mutation 1-33 (antibody, mouse IgG2b, kappa, V domains shown, Mutation 1 as framework) VH: EVQLQQSGPEVVKPGASVKISCKASGTTLTDYYMNWVKQSHGKGLEWIGDLNPIQGGTAYNQKFRDKATLTVDKSSNTAYMELRSLTSEDSALYYCTKGAEDYWGQGTTLTVSS VL: DVVLTQTPLSLSVTIGQPASISCKSSQSLLYSNGKIYLNWFQQRPGQSPKRLMYQLSKLEPGIPDRFSGSGSETDFTLKISRVEAEDLGVYYCLQGTYSPQTFGGGTKLEIKR")
9.77
>>> reported_value("Mutation 1-43 (antibody, mouse IgG2b, kappa, V domains shown, Mutation 1 as framework) VH: EVQLQQSGPEVVKPGASVKISCKASGTTLTDYYMNWVKQSHGKGLEWIGDINPINGGTAYQQKFRDKATLTVDKSSNTAYMELRSLTSEDSALYYCTKGAEDYWGQGTTLTVSS VL: DVVLTQTPLSLSVTIGQPASISCKSSQSILYSNGKIYLNWFQQRPGQSPKRLMYQISKLEPGIPDRFSGSGSETDFTLKISRVEAEDLGVYYCLQGTYSPQTFGGGTKLEIKR")
9.91
>>> reported_value("Mutation 1-39 (antibody, mouse IgG2b, kappa, V domains shown, Mutation 1 as framework) VH: EVQLQQSGPEVVKPGASVKISCKASGTTLTDYYMNWVKQSHGKGLEWIGDLNPINGGTAYQQKFRDKATLTVDKSSNTAYMELRSLTSEDSALYYCTKGAEDYWGQGTTLTVSS VL: DVVLTQTPLSLSVTIGQPASISCKSSQSLLYSNGKIYLNWFQQRPGQSPKRLMYQLSKLEPGIPDRFSGSGSETDFTLKISRVEAEDLGVYYCLQATYTPQTFGGGTKLEIKR")
9.63
